Origin of values: patent US8354518B2

Biological target: BK NS5a268S-2bN24S
Assay: β-lactamase reporter replicon assay, BK NS5a268S-2bN24S chimeric replicon
Conditions: BK NS5a268S-2bN24S replicon
Method: Selection of persistently replication cells lines expressing β-lactamase, using bla:2b chimeric replicons each harboring a different mutation (N24S, M31I, I392L) defined in the Neo^r selection studies described above, was performed in the enhanced replication Huh7 derived cell line MR2. […] RNA was generated using MEGAscript™ (Ambion, Austin, Tex.) and quantitated by UV absorbance. […]
reported_property: EC50 (nM)
Please state the figure in nM; there is no need to write the unit.

# input Specify EC50 for `C[C@@]1(O)[C@H](O)[C@@H](CO)O[C@H]1n1cnc2c(N)ncnc21` and stop.
# output 982
